Measured On: Recombinant human liver glucokinase (Homo sapiens (Human))
Sequence (P35557 other isoform, or with tags, fused parts or gaps): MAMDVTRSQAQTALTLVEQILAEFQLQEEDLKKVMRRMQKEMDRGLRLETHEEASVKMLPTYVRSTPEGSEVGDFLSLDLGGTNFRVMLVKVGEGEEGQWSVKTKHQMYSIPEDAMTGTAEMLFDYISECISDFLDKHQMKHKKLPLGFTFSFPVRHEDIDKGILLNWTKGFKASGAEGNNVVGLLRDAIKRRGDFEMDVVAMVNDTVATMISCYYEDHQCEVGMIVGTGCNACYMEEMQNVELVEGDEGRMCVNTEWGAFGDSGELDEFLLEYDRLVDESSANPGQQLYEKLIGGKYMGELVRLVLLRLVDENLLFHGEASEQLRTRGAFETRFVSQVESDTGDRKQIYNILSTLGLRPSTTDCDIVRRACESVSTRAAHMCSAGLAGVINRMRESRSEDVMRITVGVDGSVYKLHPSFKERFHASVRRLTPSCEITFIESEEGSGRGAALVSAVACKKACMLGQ
Method Description: Glucokinase activation assay (G6PDH-coupled, Thio-NADH absorbance at 405 nm)
Type: biochemical
Readout Name: Emax (%)

In [3]: df
Out[3]:
                     structure_smiles_string  units_symbol  assay_value
 0  CCOC(=O)CSc1cnc(NC(=O)c2nc(Sc3ccc(F)cc3)ccc2Sc2ccc(F)cc2)s1             %          182
 1  CCOP(=O)(Cc1cnc(NC(=O)c2nc(Sc3nncn3C)ccc2Sc2ccc(Cl)c(Cl)c2)s1)OCC             %          379
 2  CCOP(=O)(Cc1cnc(NC(=O)c2nc(Sc3nncn3C)ccc2Sc2ccc(C(F)(F)F)cc2)s1)OCC             %          273
 3  COC(=O)CCc1cnc(NC(=O)c2nc(Sc3ccccn3)ccc2Sc2ccc(F)cc2)s1             %          468
 4  CCOC(=O)Cc1nc(NC(=O)c2nc(Sc3nncn3C)ccc2Sc2ccc(F)cc2)sc1Cl             %          378
 5  COc1ccc(Sc2ccc(Sc3ccccn3)nc2C(=O)Nc2nc(CC(=O)O)cs2)cc1             %          698
 6  COc1ccc(Sc2ccc(Sc3nncn3C)nc2C(=O)Nc2ncc(CCC(=O)O)s2)cc1             %          626
 7  COc1ccc(Sc2ccc(Sc3ccccn3)nc2C(=O)Nc2ncc(CCC(=O)O)s2)cc1             %          645
 8  CCOC(=O)Cc1nc(NC(=O)c2nc(Sc3nncn3C)ccc2Sc2ccc(Cl)c(Cl)c2)sc1Cl             %          426
 9  CCOC(=O)CSc1cnc(NC(=O)c2nc(Sc3nncn3C)ccc2Sc2ccc(Cl)c(Cl)c2)s1             %          479
10  O=C(O)Cc1nc(NC(=O)c2nc(Sc3ccc(F)cc3)ccc2Sc2ccc(F)cc2)sc1Cl             %          393
11  COc1ccc(Sc2ccc(Sc3nncn3C)nc2C(=O)Nc2ncc(SC(C)(C)C(=O)O)s2)cc1             %          417
12  COc1ccc(Sc2ccc(Sc3nncn3C)nc2C(=O)Nc2ncc(SCC(=O)O)s2)cc1             %          446
13  COc1ccc(Sc2ccc(Sc3nncn3C)nc2C(=O)Nc2ccc(CC(N)=O)cc2)cc1             %          191
14  COC(=O)CCc1cnc(NC(=O)c2nc(Sc3nncn3C)ccc2Sc2ccc(C(F)(F)F)cc2)s1             %          428
15  CCOC(=O)Cc1nc(NC(=O)c2nc(Sc3nncn3C)ccc2Sc2ccc(C(F)(F)F)cc2)sc1Cl             %          296
16  O=C(O)CSc1cnc(NC(=O)c2nc(Sc3ccccn3)ccc2Sc2ccc(F)cc2)s1             %          514
17  CCOC(=O)C(C)(C)CSc1cnc(NC(=O)c2nc(Sc3nncn3C)ccc2Sc2ccc(OC)cc2)s1             %          490
18  CCOP(=O)(Cc1cnc(NC(=O)c2nc(Sc3nncn3C)ccc2Sc2ccc(F)cc2)s1)OCC             %          377
19  O=C(O)CCc1cnc(NC(=O)c2nc(Sc3ccccn3)ccc2Sc2ccc(F)cc2)s1             %          658
20  CC(C)(CSc1cnc(NC(=O)c2nc(Sc3ccccn3)ccc2Sc2ccc(F)cc2)s1)C(=O)O             %          550
21  COC(=O)CCc1cnc(NC(=O)c2nc(Sc3ccccn3)ccc2Sc2ccc(OC)cc2)s1             %          486
22  COc1ccc(Sc2ccc(Sc3nncn3C)nc2C(=O)Nc2ncc(SCC(C)(C)C(=O)O)s2)cc1             %          425
23  Cn1cnnc1Sc1ccc(Sc2ccc(C(F)(F)F)cc2)c(C(=O)Nc2nc(CC(=O)O)c(Cl)s2)n1             %          466
24  CCOC(=O)C(C)(C)CSc1cnc(NC(=O)c2nc(Sc3ccccn3)ccc2Sc2ccc(F)cc2)s1             %          450
25  CCOC(=O)Cc1csc(NC(=O)c2nc(Sc3ccccn3)ccc2Sc2ccc(F)cc2)n1             %          456
26  O=C(O)Cc1csc(NC(=O)c2nc(Sc3ccccn3)ccc2Sc2ccc(F)cc2)n1             %          762
27  CCOC(=O)CSc1cnc(NC(=O)c2nc(Sc3ccccn3)ccc2Sc2ccc(F)cc2)s1             %          504
28  Cn1cnnc1Sc1ccc(Sc2ccc(F)cc2)c(C(=O)Nc2nc(CC(=O)O)c(Cl)s2)n1             %          525
29  CCOC(=O)CSc1cnc(NC(=O)c2nc(Sc3nncn3C)ccc2Sc2ccc(C(F)(F)F)cc2)s1             %          384
30  Cn1cnnc1Sc1ccc(Sc2ccc(Cl)c(Cl)c2)c(C(=O)Nc2nc(CC(=O)O)c(Cl)s2)n1             %          523
